# assay-name: Pharmacokinetic studies in rabbits
# Format: in vivo
# experimental-setup: Albino, rabbit, plasma, po, 1 mg/kg
reported-endpoint: half-life (h)
Provide the reading as a plain figure in h.

Please supply the value of reported half-life for the item CC(C)(C)NC(=O)[C@H]1CC[C@H]2[C@@H]3CC[C@H]4NC(=O)C=C[C@]4(C)[C@H]3CC[C@]12C [FIN] 11

---

# assay-name: Pharmacokinetic studies in rabbits
# Format: in vivo
# experimental-setup: Albino, rabbit, plasma, po, 1 mg/kg
reported-endpoint: AUC (ng·h/mL)
Supply the numeric figure in ng·h/mL, leaving out any unit text.

Supply AUC value. Item: CC(C)(C)NC(=O)[C@H]1CC[C@H]2[C@@H]3CC[C@H]4NC(=O)C=C[C@]4(C)[C@H]3CC[C@]12C 782
